METHOD DESCRIPTION: ATG_NRF2_ARE_CIS: Attagene CIS-FACTORIAL HepG2 Assay for human Nuclear Factor Erythroid 2 Related Factor 2 (NFR2) response to Antioxidant Response Elements (ARE) (AID 2282992)
CONDITIONS USED: HepG2 Attagene ARE/NRF2 reporter, transcription factor activity; actives raise or lower the signal
Active and inactive are the calls of the source. Rule for the calls: active = hit-call score of the fitted dose curve at least 0.9, where 1 is the maximum; inactive = score below 0.9.
// allowed return values: yes (1) (active), no (0) (inactive)

Could you please tell me the result logged for `COS(=O)(=O)c1ccc(C)cc1` in this assay?
no (0)

In this assay, the call recorded for `CCOC(=O)/C=C(C)/C=C/C[C@@H](C)CCCC(C)C` was what?
yes (1)

Returns: the outcome recorded for `O=C(O)C(Cl)(Cl)Cl` in this assay.
no (0)

# outcome recorded in this test, key = `ClCc1ccccn1`
yes (1)

// param item: Fc1ccc(C2(Cn3cncn3)OC2c2ccccc2Cl)cc1 (stereo not drawn) ; yields the recorded call
yes (1)

Assay result, entry `CC(C)(c1ccccc1)c1ccc(O)c(C(C)(C)c2ccccc2)c1` — outcome?
yes (1)

Identify the outcome logged in this assay for the compound shown: `Clc1nc(Cl)nc(Cl)n1`
no (0)

Field: outcome | Entry: `O=C1CCCN1`
no (0)

What did this assay record as the result for CCC(C)c1cccc(C(C)CC)c1O (stereo not drawn) ?
yes (1)

Record lookup: outcome of this test for `CCN(CC)C(=O)Cl` ?
no (0)

Recorded call for `COc1ccccc1OC` ?
no (0)

Look up the recorded call for ClC1(Cl)C2(Cl)C3(Cl)C4(Cl)C(Cl)(Cl)C5(Cl)C3(Cl)C1(Cl)C5(Cl)C24Cl (stereo not drawn) in this test.
no (0)

# lookup: test call for `NC(=S)Nc1ccccc1`
no (0)

What was the test verdict on `O=[N+]([O-])c1ccc2c3c(cccc13)CC2` ?
yes (1)

What classification did `NNC(=S)NN` end up with in this test?
no (0)

For `CCC(C)(C)c1ccc(O)c(C(C)(C)CC)c1` , which call appears in the assay record?
yes (1)

Given `CC(C)OC(=O)Nc1ccccc1` , state the outcome it received in this test.
no (0)

Query: recorded result category for `COc1cc2c(cc1OC)[C@@]13CCN4CC5=CCO[C@H]6CC(=O)N2[C@H]1[C@H]6[C@H]5C[C@H]43` in this test
no (0)

Identify the outcome logged in this assay for the compound shown: `N#CN=C(N)N`
no (0)

Recorded test outcome, item `CCCCCCCCSC(=O)Oc1cc(Cl)nnc1-c1ccccc1`
yes (1)

Kindly provide the recorded test outcome for the following compound: `O=C(NCO)NCO`
no (0)

// outcome(item) with item = `COP(=S)(OC)Oc1ccc(Sc2ccc(OP(=S)(OC)OC)cc2)cc1`
yes (1)

Recorded test call requested for `CCOC(=O)CP(=O)(OCC)OCC`
no (0)

Returns: the outcome recorded for CC1CN1P(=O)(N1CC1C)N1CC1C (stereo not drawn) in this assay.
no (0)

Given `CC(C)CCCCCCOC(=O)c1ccccc1C(=O)OCCCCCCC(C)C` , state the outcome it received in this test.
no (0)

Which outcome did this test record for the compound CC12CC1(C)C(=O)N(c1cc(Cl)cc(Cl)c1)C2=O (stereo not drawn) ?
no (0)

Give the logged outcome of this assay for the following compound: `Cc1cc(Cl)ccc1O[C@H](C)C(=O)O`
no (0)

Dear all, I need the recorded test outcome for CC(C#N)CCC#N (stereo not drawn) , thank you.
no (0)

Status in this test for OCC(O)CCl (stereo not drawn) ?
no (0)

Outcome logged for CC(Br)C(=O)O (stereo not drawn) in this assay:
no (0)

Assay result, entry CCOP(=S)(OCC)Oc1ccc(S(C)=O)cc1 (stereo not drawn) — outcome?
no (0)

Record request — test call for `COc1cc(OC)nc(NC(=O)NS(=O)(=O)c2ncccc2C(=O)N(C)C)n1`
no (0)

In this assay, the call recorded for `COC[C@H](C)N(C(=O)CCl)c1c(C)csc1C` was what?
no (0)

Which outcome did this test record for the compound `COP(=S)(OC)Oc1c(Cl)cc(C)cc1Cl` ?
yes (1)

Could you kindly confirm the outcome this assay logged for `CCNc1nc(NC(C)(C)C)nc(SC)n1` ?
no (0)

For CCC(=O)C(CC(C)N(C)C)(c1ccccc1)c1ccccc1 (stereo not drawn) , what call appears in the results of this test?
no (0)

Look up the recorded call for `COc1ccc(OC)c(C=O)c1` in this test.
no (0)

Test call, this compound: Clc1ccc(COC(Cn2ccnc2)c2ccc(Cl)cc2Cl)cc1 (stereo not drawn)
yes (1)

What classification did `CCC[CH2][Sn]([CH2]CCC)([CH2]CCC)[O]C(=O)c1ccccc1` end up with in this test?
yes (1)

Recorded test outcome, item `C=C(C)C(=O)[O][Sn]([CH2]CCC)([CH2]CCC)[CH2]CCC`
yes (1)

Recorded test call requested for `C=CC(=O)N(C)C`
no (0)

Called result for `N#Cc1ccccn1`
no (0)

Dear colleague, could you share the recorded outcome for `CCc1ccccc1N` when you have a moment?
no (0)

Tell me the recorded outcome of this test for `CCOC(=O)Nc1cccc(OC(=O)Nc2ccccc2)c1` .
yes (1)

Per the records of this test, what outcome belongs to `O=C(Cc1ccccc1)c1ccccc1` ?
yes (1)

Please let me know the test result on file for `CC(=O)c1cc(C(C)(C)C)cc2c1CCC2(C)C` .
yes (1)

Hi, do you know how `O=C(Nc1ccc2[nH]ccc2c1)c1cc2cc(F)ccc2n1Cc1cccc(F)c1` came out in this test?
yes (1)

Test call for this compound, please: `O=C(OC1CCCCC1)c1ccccc1C(=O)OC1CCCCC1`
yes (1)

Lab log entry: `CC(=O)[O][Hg][c]1ccccc1` — outcome as called in the assay?
yes (1)

Outcome? `N#CCc1ccc(Cl)cc1`
no (0)

Per the assay record, what outcome was assigned to `COC(=O)Cc1ccccc1` ?
no (0)

Assay result, entry CC(C)(c1ccc(OCC2CO2)cc1)c1ccc(OCC2CO2)cc1 (stereo not drawn) — outcome?
yes (1)

Which result was noted for this compound in the test: CC(=O)C(Cl)C(=O)N(C)C (stereo not drawn)
yes (1)

Would you mind telling me which call this test gave `Cl/C=C\C[N+]12CN3CN(CN(C3)C1)C2` ?
yes (1)

Dear all, I need the recorded test outcome for `COc1cc(-c2ccc(N)c(OC)c2)ccc1N` , thank you.
no (0)

Which outcome was entered for the compound `[O-][Cl+2]([O-])O` in this test?
no (0)

Recorded call for `COP(=S)(OC)Oc1cc(Cl)c(Cl)cc1Cl` ?
yes (1)

Can you look up the reported call for `C=CC#N` for me?
yes (1)

====

METHOD DESCRIPTION: CCTE_Shafer_MEA_acute_cross_correlation_area: CCTE's Neural Acute Assay for Area of Cross Correlation, Shafer Lab (AID 2284024);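 note: area under pooled inter-electrode spike cross-correlation near zero lag as percent change from own baseline; curves fitted for loss of cross-correlation area so actives lower synchrony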
Calls of active or inactive are those of the source. How the source made its calls: active means hit-call score of the fitted dose curve at least 0.9, where 1 is the maximum; inactive means score below 0.9.
Select the correct class. Options are active, inactive and nothing else.

Hi, sorry to bother you, what did the test record for `C=C(C)C(=O)[O][Sn]([CH2]CCC)([CH2]CCC)[CH2]CCC` ?
active

Entry CC(=O)OC(c1ccccc1)C(Cl)(Cl)Cl (stereo unspecified) : call = ?
inactive

Called result for `CC(C)(OO)c1ccccc1`
inactive

Query: recorded result category for ClC1(Cl)C2(Cl)C3(Cl)C4(Cl)C(Cl)(Cl)C5(Cl)C3(Cl)C1(Cl)C5(Cl)C24Cl (stereo unspecified) in this test
inactive

Please let me know the test result on file for `CCC(C)(C)c1ccc(O)c(C(C)(C)CC)c1` .
inactive

What did this assay record as the result for `CCN1CCC2(CC1)COc1cc3c(cc12)N(C(=O)c1ccc(-c2ccc(-c4nnc(C)o4)cc2C)cc1)CC3` ?
inactive

Recorded test outcome, item CCC(=O)C(CC(C)N(C)C)(c1ccccc1)c1ccccc1 (stereo unspecified)
active

I'd appreciate the recorded outcome for `CC(C)(C)CC(C)(C)c1ccc(O)cc1` from this test.
inactive

Per the records of this test, what outcome belongs to `O=C(O)C(F)(F)C(F)(F)C(F)(F)C(F)(F)C(F)(F)C(F)(F)C(F)(F)C(F)(F)C(F)(F)C(F)(F)F` ?
inactive

// outcome(item) with item = `CC(=O)[O][Hg][c]1ccccc1`
active

Could you kindly confirm the outcome this assay logged for O=C1C2(Cl)C3(Cl)C4(Cl)C(Cl)(Cl)C5(Cl)C3(Cl)C1(Cl)C5(Cl)C24Cl (stereo unspecified) ?
inactive

====

Read-out: CD40, CD40 (gene 958)
METHOD DESCRIPTION: BSK_LPS_CD40: BioMAP Diversity Plus: LPS Assay for CD40 Biomarker Activity (AID 2283076)
CONDITIONS USED: primary human HUVEC with PBMC; actives raise or lower the signal
Active and inactive are the calls of the source. Rule for the calls: active = hit-call score of the fitted dose curve at least 0.9, where 1 is the maximum; inactive = score below 0.9.
Result category, one only: active, inactive

Any idea what this test logged for `Oc1cccc2cccnc12` ?
inactive

Tell me the assay call for `CCOC(=O)/C=C(C)/C=C/C[C@@H](C)CCCC(C)C` please.
active

// param item: CCSC(C)CC1CC(=O)C(C(CC)=NOC/C=C/Cl)=C(O)C1 (stereo unspecified) ; yields the recorded call
inactive

For this compound, state the assay outcome: `CC(C)(OO)c1ccccc1`
inactive

I would be grateful if you could indicate the recorded call for `COc1cc(-c2ccc(N)c(OC)c2)ccc1N` .
inactive

Any idea what this test logged for `C[C@@H]1C[C@@H]([C@H](O)CC2CC(=O)NC(=O)C2)C(=O)[C@@H](C)C1` ?
active

What is the recorded call for this compound in the test? `O=C(O)C(F)(F)C(F)(F)C(F)(F)C(F)(F)C(F)(F)C(F)(F)F`
inactive

# fetch the recorded call for `ClC1=C(Cl)[C@]2(Cl)[C@H]3[C@H]([C@H]4C=C[C@H]3C4)[C@@]1(Cl)C2(Cl)Cl` here
inactive

Can you look up the reported call for `COC[C@H](C)N(C(=O)CCl)c1c(C)csc1C` for me?
inactive

Kindly provide the recorded test outcome for the following compound: `O=c1[nH]c(=O)[nH]c(=O)[nH]1`
inactive

Please indicate how the test categorized `CCOP(=S)(OCC)SCCS(=O)(=O)CC` .
inactive

Tell me the assay call for `CC(C)(c1ccccc1)c1ccc(O)c(C(C)(C)c2ccccc2)c1` please.
active

What outcome does the record of this test show for `CC(C)CCCCCCOC(=O)c1ccccc1C(=O)OCCCCCCC(C)C` ?
inactive

Hey, what did the test say about `COC(=O)c1sccc1S(=O)(=O)NC(=O)Nc1nc(C)nc(OC)n1` ?
inactive

What is the recorded call for this compound in the test? `Nc1ncc([N+](=O)[O-])s1`
inactive

Dear colleague, could you share the recorded outcome for CCOP(=S)(OCC)Oc1ccc(S(C)=O)cc1 (stereo unspecified) when you have a moment?
inactive

Can you look up the reported call for `COP(=S)(OC)Oc1c(Cl)cc(C)cc1Cl` for me?
inactive

Field: outcome | Entry: CCC(=O)C(CC(C)N(C)C)(c1ccccc1)c1ccccc1 (stereo unspecified)
inactive

Please share the test call associated with `CC(=O)[O][Hg][c]1ccccc1` .
active

State the result this test recorded for `CC1(C)Cc2cccc(O)c2O1` .
inactive

# outcome recorded in this test, key = `COC(=O)Cc1ccccc1`
inactive

# lookup: test call for `C(=NC1CCCCC1)=NC1CCCCC1`
active

Dear all, I need the recorded test outcome for `CC(C)(C)c1cc(O)ccc1O` , thank you.
active

GET /call?item= O=C1C2(Cl)C3(Cl)C4(Cl)C(Cl)(Cl)C5(Cl)C3(Cl)C1(Cl)C5(Cl)C24Cl (stereo unspecified) returns the recorded outcome of this test.
active

Dear all, I need the recorded test outcome for `O=Cc1cccc(Oc2ccccc2)c1` , thank you.
inactive

Which outcome did this test record for the compound `Oc1c(I)cc(I)cc1I` ?
active
